measurement description: qHTS Assay for Lipid Storage Modulators (AID 1519)
condition label: Drosophila S3 cells, BODIPY lipid droplet/cell ratio, laser cytometry; measured here: cell count channel max response; cells loaded with oleic acid
Records with an inconclusive call do not appear.
Reported max response by item:

molecule: C[C@H]1NC(=O)NC1=O
max response (%): -2.21

molecule: O=C(Nc1cccc(F)c1)N1CCCC2(CCN(C(=O)c3cc(C(F)(F)F)cc(C(F)(F)F)c3)CC2)C1
max response (%): 12.9

molecule: Cc1cnc(CNc2ncnc3ccc(-c4ccccc4CN(C)C)cc23)cn1
max response (%): 5.18

molecule: Cc1ccccc1-c1cncnc1N1CCNCC1
max response (%): 11

molecule: COc1ccccc1-c1nc(NCCNC(C)=O)c2ccccc2n1
max response (%): 8.82

molecule: CC[C@]1(C)CC(=O)NC1=O
max response (%): 2.27

molecule: COCCn1c(=O)c(-c2cn(C)c3ccccc23)nc2cnc(Oc3ccc(OC)cc3)nc21
max response (%): 2.76

molecule: C[C@@]12CC[C@@H]3c4ccc(O)cc4CC[C@H]3[C@H]1CC[C@H]2O
max response (%): -11.7

molecule: COc1ccccc1CN1CC[C@@]2(CCCN(C(=O)c3ccco3)C2)C1
max response (%): 4.46

molecule: CC1(C)C=CC(=O)[C@]2(C)C1CC(=O)[C@]1(C)C2CC[C@@]2(C)C(c3ccoc3)OC(=O)C3OC321 (some centres undefined)
max response (%): -7.57

molecule: COc1cccc(-c2nc(N3CCNCC3)c3ccccc3n2)c1
max response (%): -17.6

molecule: CC(C)CN1CCC2(CC1)CCN(C(=O)c1cccn1C)CC2
max response (%): -5.62

molecule: COCCn1c(=O)c(-c2ccc(Cl)cc2)nc2cnc(N3CCNCC3)nc21
max response (%): 20.2

molecule: COCC(=O)N1CCC2(CC1)CCN(c1ncccn1)CC2
max response (%): 11.8

molecule: CC(=O)NC(C(=O)O)C(C)(C)SN=O (centres undefined)
max response (%): 6.33

molecule: O=C(c1ccco1)N1CCC2(CCN(Cc3ccncc3)CC2)CC1
max response (%): 12.7

molecule: CNc1ncnc2ccc(-c3cccc(NS(C)(=O)=O)c3)cc12
max response (%): -9.5

molecule: CCN(CC)CC#CCOC(=O)[C@@](O)(c1ccccc1)C1CCCCC1
max response (%): -6.72

molecule: c1ccc(C(c2ccccc2)N2CCCC3(CCNCC3)C2)cc1
max response (%): -12.4

The measurements presented in this section are drawn from PubChem BioAssay (NCATS).
